- Test system: Acinetobacter baumannii strains
- procedure_text: Antibiotic susceptibility test (CLSI disk diffusion test method, read per CLSI 2016)
- Assay type: cell-based
- test_context: host strain YMC15/03/R1604
- Procedure: Strain identification was performed using a kit such as AT 32 GN system (bioMérieux, Marcy l'Etoile, France). […] In Table 2 below, S, I, and R are the results obtained by evaluating susceptibility to the antibacterial agents, in which ‘S’ means susceptible, ‘I’ means intermediate, and ‘R’ means resistant. Strain identification was performed using a kit such as ATB 32 GN system (bioMédrieux, Marcy l'Etoile, France). […]
quantity_measured: antibiotic susceptibility S/I/R

NCC[C@H](O)C(=O)N[C@@H]1C[C@H](N)[C@@H](O[C@H]2O[C@H](CN)[C@@H](O)[C@H](O)[C@H]2O)[C@H](O)[C@H]1O[C@H]1O[C@H](CO)[C@@H](O)[C@H](N)[C@H]1O [Amikacin, amikacin]
R
C[C@H]1COc2c(N3CCN(C)CC3)c(F)cc3c(=O)c(C(=O)O)cn1c23 [Levofloxacin, levofloxacin]
R
CCN1CCN(C(=O)N[C@@H](C(=O)N[C@@H]2C(=O)N3[C@@H]2SC(C)(C)[C@@H]3C(=O)O)c2ccccc2)C(=O)C1=O [Piperalillinc]
R
